test: Pharmacokinetics of apixaban in rats, alone and after multiple doses of almonertinib; assay type: in vivo, Sprague-Dawley (SD) rats; settings: male, Sprague-Dawley, rat, plasma, po, 0.5 mg/kg, rats, oral apixaban 0.5 mg/kg alone (group 2), mean ± SD, n = 6; read-out: Vz/F
Observed Property: Vd/F (L/kg)
One number for each entry, in L/kg.

Requested read-out: Vd/F. Entry: COc1ccc(-n2nc(C(N)=O)c3c2C(=O)N(c2ccc(N4CCCCC4=O)cc2)CC3)cc1 3.72

---

test: Pharmacokinetics of rivaroxaban in rats, alone and after multiple doses of almonertinib; format: in vivo, Sprague-Dawley (SD) rats; details: male, Sprague-Dawley, rat, plasma, po, 2 mg/kg, rats, oral rivaroxaban 2 mg/kg after almonertinib 15 mg/kg for nine days (group 5), mean ± SD, n = 6
Observed Property: Tmax (h)
One number for each entry, in h.

Given O=C(NC[C@H]1CN(c2ccc(N3CCOCC3=O)cc2)C(=O)O1)c1ccc(Cl)s1 , state its recorded Tmax. 2.21
